# test: Cytotoxicity (cell viability) in anti-aging evaluation
# Format: cell-based, human
# experimental.conditions: human, hs68 human fibroblasts; cyclopeptide 0.0008 μM; (sample/control) × 100%
test.readout: viability at 0.0008 µM (%)
Give bare numbers, in %.

Sample N=C(N)NCCC[C@@H]1NC(=O)C2(CCCCC2)NC(=O)[C@@H](Cc2ccccc2)NC(=O)[C@H](CC(=O)O)NC(=O)CNC1=O [III-5] ; viability at 0.0008 µM observed: 92

* * *

# test: Cytotoxicity (cell viability) in anti-aging evaluation
# Format: cell-based, human
# experimental.conditions: human, hs68 human fibroblasts; cyclopeptide 0.25 μM; (sample/control) × 100%
test.readout: viability at 0.25 µM

What the record says about `N=C(N)NCCC[C@@H]1NC(=O)C2(CCCCC2)NC(=O)[C@@H](Cc2ccccc2)NC(=O)[C@H](CC(=O)O)NC(=O)CNC1=O` : viability at 0.25 µM is 99%

* * *

# test: Cytotoxicity (cell viability) in anti-aging evaluation
# Format: cell-based, human
# experimental.conditions: human, hs68 human fibroblasts; cyclopeptide 0.02 μM; (sample/control) × 100%
test.readout: viability at 0.02 µM (%)
Answers are plain numbers, in %.

viability at 0.02 µM measured on `N=C(N)NCCC[C@@H]1NC(=O)C2(CCCCC2)NC(=O)[C@@H](Cc2ccccc2)NC(=O)[C@H](CC(=O)O)NC(=O)CNC1=O` = 100

* * *

# test: Cytotoxicity (cell viability) in anti-aging evaluation
# Type: cell-based, human
# experimental.conditions: human, hs68 human fibroblasts; cyclopeptide 0.004 μM; (sample/control) × 100%
test.readout: viability at 0.004 µM (%)
Numbers only, in %.

For reference, reported viability at 0.004 µM for N=C(N)NCCC[C@@H]1NC(=O)C2(CCCCC2)NC(=O)[C@@H](Cc2ccccc2)NC(=O)[C@H](CC(=O)O)NC(=O)CNC1=O [III-5] stands at 97

* * *

# test: Cytotoxicity (cell viability) in anti-aging evaluation
# Format: cell-based, human
# experimental.conditions: human, hs68 human fibroblasts; cyclopeptide 0.1 μM; (sample/control) × 100%
test.readout: viability at 0.1 µM (%)
Answers are plain numbers, in %.

Lab book: viability at 0.1 µM of `N=C(N)NCCC[C@@H]1NC(=O)C2(CCCCC2)NC(=O)[C@@H](Cc2ccccc2)NC(=O)[C@H](CC(=O)O)NC(=O)CNC1=O` noted as 97
